Would you mind telling me the reported pIC50 of each entry?
Test system: MDA-MB-231
Test: In vitro cell growth inhibition assay (MTT)
Assay type: cell-based, human
Details: MDA-MB-231 human breast cancer cell line, 48 h, MTT; read-out: IC50 MDA-MB-231
One number for each entry, as −log10 of the molar value.

As a guide, the following entries are already answered.
COc1ccc([C@H]2[C@H](NC(=O)c3ccccc3)C(=O)N2c2cc(OC)c(OC)c(OC)c2)cc1O [Compound 78]
7.33
C=C1C(=O)N(c2cc(OC)c(OC)c(OC)c2)[C@H]1c1ccc(OC)c(OC(=O)CNC(=O)OC(C)(C)C)c1 [Compound 34]
6.47
C=C1C(=O)N(c2cc(OC)c(OC)c(OC)c2)[C@H]1c1ccc(OC)c(OC(=O)c2cccnc2)c1 [Compound 22]
6.82
C=C1C(=O)N(c2cc(OC)c(OC)c(OC)c2)[C@H]1c1ccc(OC)c(OS(=O)(=O)c2ccc(C)cc2)c1 [Compound 27]
4.89
C=C1C(=O)N(c2cc(OC)c(OC)c(OC)c2)[C@H]1c1ccc(OC)c(NC(=O)C2CC2)c1 [Compound 45]
6.71
COc1ccc([C@H]2[C@H](C)C(=O)N2c2cc(OC)c(OC)c(OC)c2)cc1O [Compound 97]
8.52

State the recorded pIC50 for every item in the following list.
1. C=C1C(=O)N(c2cc(OC)c(OC)c(OC)c2)[C@H]1c1ccc(OC)c(F)c1 [Compound 38]
2. C=C1C(=O)N(c2cc(OC)c(OC)c(OC)c2)[C@H]1c1ccc(OC)c(OS(=O)(=O)c2ccc(OC)c(OC)c2)c1 [Compound 33]

6.95
4.87

For every item in the list below, what is its measured pIC50?
1. COc1ccc([C@H]2[C@@H](C)C(=O)N2c2cc(OC)c(OC)c(OC)c2)cc1OS(=O)(=O)F [Compound 108]
2. C=C1C(=O)N(c2cc(OC)c(OC)c(OC)c2)[C@H]1c1ccc(OC)c(OS(N)(=O)=O)c1 [Compound 26]

7.40
6.62

---

Test system: MDA-MB-231
Assay: In vitro cell growth inhibition assay (MTT)
Format: cell-based, human
Conditions: Homo sapiens, MDA-MB-231, 48 h, read-out: IC50 MDA-MB-231
experimental_readout: IC50 (nM)
One number for each entry, in nM.

C=C1C(=O)N(c2cc(OC)c(OC)c(OC)c2)[C@H]1c1ccc(OC)c(OC(=O)c2ccc(F)cc2)c1 [Compound 20]
223

Consider the additional compound presented here.
I am curious: what IC50 value has been reported for C=C1C(=O)N(c2cc(OC)c(OC)c(OC)c2)[C@H]1c1ccc(OC)c(OC(=O)C2CC2)c1 [Compound 23] ?
207

---

Hi there, I'd appreciate the recorded IC50 for every entry that follows.
System: MDA-MB-231
Test: In vitro cell growth inhibition assay (MTT)
Type: cell-based, human
Conditions: MDA-MB-231 human breast cancer cell line, 48 h, MTT; read-out: IC50 MDA-MB-231
Param answer (str): number followed by unit.

Working through the 4 compounds below one at a time, give IC50 for each.
1. C=C1C(=O)N(c2cc(OC)cc(OC)c2)[C@H]1c1ccc(OC)c(O)c1
2. COc1ccc([C@H]2[C@@H](C)C(=O)N2c2cc(OC)c(OC)c(OC)c2)cc1N
3. C=CC(=O)Oc1cc([C@H]2C(=C)C(=O)N2c2cc(OC)c(OC)c(OC)c2)ccc1OC
4. C=C1C(=O)N(c2cc(OC)c(OC)c(OC)c2)[C@H]1c1ccc(OC)c(OS(=O)(=O)c2ccc(NC(C)=O)cc2)c1

125 nM
81 nM
565 nM
15800 nM
